subject of test: T1, Human PD-1 (ACROBiosystems, Inc., Catalog No. PD1-H5221) (human, UniProt Q15116 25-167)
T1 construct: Bought recombinant protein; also called huPD1-His; PD-1-his; not shown: His tag of the bought protein (huPD1-His)
protocol details: SPR (Biacore), scFv captured on anti-FLAG, PD-1 as analyte
Examples of binders with documented pKd follow.
A value of pKd is the negative decimal logarithm of a concentration given in moles per litre.

# annotated cases, reported pKd shown
h1E9-1 (VH3-21-Vκ1-9) scFv (scFv, Whole scFv chain with FlagHis tag) scFv: MEVQLVESGGGLVKPGGSLRLSCAASGFTFSTFGMSWVRQAPGKGLEWVSTISGGGSDTYYPDSVQGRFTISRDNAKNSLYLQMNSLRAEDTAVYYCARQGYDVYSWFAYWGQGTLVTVSSGGGGSGGGGSGGGGSDIQLTQSPSFLSASVGDRVTITCRASESVDNSGISFMSWYQQKPGKAPKLLIYTASNQGSGVPSRFSGSGSGTEFTLTISSLQPEDFATYYCQQSKEVPWTFGQGTKVEIKGSGDYKDDDDKGSGHHHHHH | 8.59
h1E9-5 (VH3-7-Vκ3-11) scFv (scFv, Whole scFv chain with FlagHis tag) scFv: MEVQLVESGGGLVQPGGSLRLSCAASGFTFSTFGMSWVRQAPGKGLEWVATISGGGSDTYYPDSVQGRFTISRDNAKNSLYLQMNSLRAEDTAVYYCARQGYDVYSWFAYWGQGTLVTVSSGGGGSGGGGSGGGGSEIVLTQSPATLSLSPGERATLSCRASESVDNSGISFMSWYQQKPGQAPRLLIYTASNQGSGIPARFSGSGSGTDFTLTISSLEPEDFAVYYCQQSKEVPWTFGQGTKVEIKGSGDYKDDDDKGSGHHHHHH | 8.50

Query binder follows.
Query block: State the recorded pKd for this entry: m1B10 scFv (scFv, Mouse single-chain antibody, whole chain with FlagHis tag) scFv: MSDVQLQESGPGLVKPSQSLSLTCTVTGHSITSDYAWNWIRQFPGNKLEWMGYISYSGRTSYNPSLTSRISITRDTSKNQFFLQLNSVTTEDTATYYCARGYALDYWGQGTSVTVSSGGGGSGGGGSGGGGSQIVLSQSPAILSASPGEKVTMTCRTSSSVNYMHWFQQKPGSSPKPWIYATSKLASGVPARFSGSGSGTSYSLTISRVEAEDAATYFCQQWISDPWTFGGGTKLEIKGSGDYKDDDDKGSGHHHHHH
Result block: 7.89

All values here come from patent US20210107981A1.
